Give measured growth for each item. Keep answers brief.
- Tested on: PC-3 prostate
- experiment: NCI-60 one-dose screen, 48 h (100 = growth as untreated, 0 = no growth, -100 = all killed)
- test parameters: 10 µM unless noted
About 83,000 compounds went through this panel and 20% of them were active in at least one assay; those are over-represented in the sample as a whole.
Field format: number, assumed %, no unit text.

Req: Look up and report measured growth for this entry: "O=C(N/N=C\c1ccc(Cl)cc1Cl)c1ccncc1"
Resp: 94

Req: Look up and report measured growth for this entry: "Cc1c(-c2ccc(C3CCCCC3)cc2)nc2ccc(F)cc2c1C(=O)O"
Resp: 44.9

Req: Look up and report measured growth for this entry: "ClCc1cccc2c(CCl)cccc12"
Resp: 65.9

Req: Look up and report measured growth for this entry: CN1CCCN(C(c2ccccc2)c2ccc(Cl)cc2)CC1 (centres undefined)
Resp: 86.5

Req: Look up and report measured growth for this entry: "CC(=O)Nc1ccc(C(=O)c2ccc(S(=O)(=O)Nc3ccccc3)cc2)cc1"
Resp: 87.2

Req: Look up and report measured growth for this entry: "CCOc1ccc(C(=O)O)cc1"
Resp: 91.2

Req: Look up and report measured growth for this entry: "O=C1Nc2ccccc2/C1=C\c1ccccc1O"
Resp: 96.8

Req: Look up and report measured growth for this entry: "CCNC(=O)Oc1ccc[nH]c1=O"
Resp: 96.5

Req: Look up and report measured growth for this entry: "CC(C)C(=O)OCCOc1ccc(C(C)(C)C)cc1"
Resp: 91.6

Req: Look up and report measured growth for this entry: COC1(OC)C2(Cl)C(Cl)=C(Cl)C1(Cl)C1COCC12 (centres undefined)
Resp: 97.6

Req: Look up and report measured growth for this entry: "Cc1nc(O)cc(=O)[nH]1"
Resp: 97

Req: Look up and report measured growth for this entry: "COc1cccc(C(=O)NNC(=O)c2cccc3ccccc23)c1"
Resp: 106

Req: Look up and report measured growth for this entry: "C=CCS(C)(=O)=O"
Resp: 101

Req: Look up and report measured growth for this entry: "COC(=O)c1ccc([N+](=O)[O-])c(C)c1"
Resp: 93.4

Req: Look up and report measured growth for this entry: OCC(O)COc1ccc(Cl)cc1Cl (centres undefined)
Resp: 97.3

Req: Look up and report measured growth for this entry: "NC(=O)c1cc2c3ccccc3ccn2c1-c1ccccc1"
Resp: 37.3

Req: Look up and report measured growth for this entry: "NC(=S)N/N=C/c1ccc(Cl)cc1"
Resp: 99.6

Req: Look up and report measured growth for this entry: CC(=O)NC(O)C(Cl)Cl (centres undefined)
Resp: 96.4

Req: Look up and report measured growth for this entry: "Oc1cccc(CNC2CCCCC2)c1"
Resp: 99.8

Req: Look up and report measured growth for this entry: "Nc1cc2ccccc2c(O)c1O"
Resp: 43.7

Req: Look up and report measured growth for this entry: "CCCOCc1cn[nH]n1"
Resp: 102

Req: Look up and report measured growth for this entry: ClCC(Cl)[C@@H]1CC2C=CC1C2 (some centres undefined)
Resp: 102

Req: Look up and report measured growth for this entry: CC1CN(CCO)CC(C)O1 (centres undefined)
Resp: 104

Req: Look up and report measured growth for this entry: "CC(CO)(CO)C(=O)O"
Resp: 94.9

Req: Look up and report measured growth for this entry: "CCOC(=O)c1cc(Cl)c(O)c(Cl)c1"
Resp: 101

Req: Look up and report measured growth for this entry: CSCCC(NC(=O)C(Cl)Cl)C(=O)O (centres undefined)
Resp: 89

Req: Look up and report measured growth for this entry: "Clc1ccc(C(SCc2ccccc2)SCc2ccccc2)cc1"
Resp: 85.9

Req: Look up and report measured growth for this entry: "Nc1nc(N)nc(N2CCCCC2)n1"
Resp: 99.5

Req: Look up and report measured growth for this entry: CCCCCCCCCCCCCC/C=C\C(CC(=O)O)C(=O)O (centres undefined)
Resp: 96.2

====

- Tested on: UACC-62 melanoma
- experiment: NCI-60 one-dose screen, 48 h (100 = growth as untreated, 0 = no growth, -100 = all killed)
- test parameters: 10 µM unless noted
The panel holds about 83,000 compounds, 20% with a hit somewhere; the sample as a whole holds those more often.
endpoint name: growth (%)
Field format: number, assumed %, no unit text.

Req: Look up and report measured growth for this entry: "CC(C)c1ncc([N+](=O)[O-])n1C"
Resp: 107

Req: Look up and report measured growth for this entry: "CCCCCCCCCc1ccc(OC(C)=O)cc1"
Resp: 107

Req: Look up and report measured growth for this entry: "CCOc1ccc(C(=O)NCC(C)C)cc1"
Resp: 101

Req: Look up and report measured growth for this entry: "CCOC(=O)c1ccc(Nc2sc(C(=O)c3ccc(Br)cc3)c(N)c2C#N)cc1"
Resp: 36.7

Req: Look up and report measured growth for this entry: CC(=O)OC(C)c1cccc(C#N)c1 (configuration not stated)
Resp: 104

Req: Look up and report measured growth for this entry: "CCOC(=O)C(COS(C)(=O)=O)(COS(C)(=O)=O)C(=O)OCC"
Resp: 103

Req: Look up and report measured growth for this entry: "COC(=O)C1=C(C)C(=O)CC1"
Resp: 100

Req: Look up and report measured growth for this entry: C=CC(C)C(C)(C)O (configuration not stated)
Resp: 102

Req: Look up and report measured growth for this entry: "C=C1C(=O)C2CCN1CC2"
Resp: 97.3

Req: Look up and report measured growth for this entry: "Cc1cc2c(C(C)C)c(O)c(O)c(C=Nc3ccccc3[N+](=O)[O-])c2c(O)c1-c1c(C)cc2c(C(C)C)c(O)c(O)c(C=Nc3ccccc3[N+](=O)[O-])c2c1O"
Resp: 96.5

Req: Look up and report measured growth for this entry: CC1CC(C)S(=O)(=O)C1 (configuration not stated)
Resp: 92.9

Req: Look up and report measured growth for this entry: "CC(=O)N(C)N=Nc1ccc(C)cc1"
Resp: 101

====

- Tested on: OVCAR-5 ovarian
- experiment: NCI-60 one-dose screen, 48 h (100 = growth as untreated, 0 = no growth, -100 = all killed)
- test parameters: 10 µM unless noted
Compounds without any hit were thinned out: in the full panel of roughly 83,000, 20% have a hit.
endpoint name: growth (%)
Field format: number, assumed %, no unit text.

Req: Look up and report measured growth for this entry: "C[n+]1c(/C=C\C=C\N2CCCCC2)sc2ccccc21"
Resp: 18.2

Req: Look up and report measured growth for this entry: "O=C(Nc1ccc([N+](=O)[O-])cc1)C(=O)Nc1ccc([N+](=O)[O-])cc1"
Resp: 102

Req: Look up and report measured growth for this entry: C=CC(=O)OC1CCC(C(C)(C)CC)CC1 (configuration not stated)
Resp: 103

Req: Look up and report measured growth for this entry: "CCC(=O)Oc1c(C)cc(O)c2ccccc12"
Resp: 105

Req: Look up and report measured growth for this entry: "CC(CCC#N)(CCC#N)C(=O)c1ccccc1"
Resp: 109

Req: Look up and report measured growth for this entry: "Cc1ccc([N+](=O)[O-])c(C)n1"
Resp: 83.5

Req: Look up and report measured growth for this entry: "Cn1c2ccccc2c2nnc(NCCCCO)nc21"
Resp: 86.5

====

- Tested on: OVCAR-4 ovarian
- experiment: NCI-60 one-dose screen, 48 h
- test parameters: 10 µM unless noted
The panel holds about 83,000 compounds, 20% with a hit somewhere; the sample as a whole holds those more often. The source made the active and inactive calls. How the source made its calls: active means growth percent below 10; inactive means the rest.
The categories you may choose from are 1.0 (active), 0.0 (inactive)

Req: // outcome(item) with item = N=C(N)c1nn(C2OC(CO)C(O)C2O)c2nc[nH]c(=O)c12 (stereo not drawn)
Resp: 1.0

Req: // outcome(item) with item = C=CC1=NC(C)(C)CC(C)O1 (stereo not drawn)
Resp: 0.0

Req: // outcome(item) with item = CC(c1ccccc1)N(C)C (stereo not drawn)
Resp: 0.0

Req: // outcome(item) with item = "O=S(=O)(OCCOS(=O)(=O)c1ccccc1)c1ccccc1"
Resp: 0.0

Req: // outcome(item) with item = "COC(=O)C1=C(C)C(=O)CC1"
Resp: 0.0

Req: // outcome(item) with item = "Cc1ccc2[nH]c3ccccc3c2c1"
Resp: 0.0

Req: // outcome(item) with item = "COc1cc(N)c2ncccc2c1Cl"
Resp: 0.0

Req: // outcome(item) with item = "O=C(NC1CCCCC1)c1ccc(Cl)cc1"
Resp: 0.0

Req: // outcome(item) with item = "COc1nc(Nc2cccc(C(F)(F)F)c2)nc(OC)n1"
Resp: 0.0

Req: // outcome(item) with item = "ClCc1cccc2c(CCl)cccc12"
Resp: 0.0

Req: // outcome(item) with item = "Nc1ccc2ccccc2c1-c1c(N)ccc2ccccc12"
Resp: 0.0

Req: // outcome(item) with item = Oc1ccc(CCC2CCNc3ccccc32)cc1 (stereo not drawn)
Resp: 0.0

Req: // outcome(item) with item = "CC(=O)N=c1ccc2nc3c(cc(N)c4ccccc43)oc-2c1"
Resp: 1.0

Req: // outcome(item) with item = "Cc1cccc(C)c1NC(=S)/N=C\c1c(O)[nH]c(=O)[nH]c1=O"
Resp: 0.0

Req: // outcome(item) with item = "O=C1CSc2ccccc2N1"
Resp: 0.0

Req: // outcome(item) with item = "CC1(C)CC(=O)C=C(N)C1"
Resp: 0.0

Req: // outcome(item) with item = O=C(O)C1CSC(c2ccccc2)N1 (stereo not drawn)
Resp: 0.0

Req: // outcome(item) with item = "O=C(O)c1ccccc1Cc1ccc2c(c1)CCCC2"
Resp: 0.0

Req: // outcome(item) with item = "O=[N+]([O-])c1c(Cl)ncnc1Cl"
Resp: 0.0

Req: // outcome(item) with item = "CC(=O)N(C(C)=O)c1ccc(C)cc1"
Resp: 0.0

Req: // outcome(item) with item = "O=[n+]1ccn([O-])c2ccccc21"
Resp: 0.0

Req: // outcome(item) with item = "COc1ccc(/C=N/NC(=O)COCC(=O)N/N=C/c2ccc(OC)cc2)cc1"
Resp: 0.0

Req: // outcome(item) with item = "CCCCCCCCCCCCSC1=C(Cl)C(=O)C(OC)=C(OC)C1=O"
Resp: 0.0

Req: // outcome(item) with item = "Cc1nc(C)c(C(=O)O)cc1C(=O)O"
Resp: 0.0

Req: // outcome(item) with item = CC(=O)OCC1OC(n2cnc3c(=S)nc(N)[nH]c32)C(OC(C)=O)C1OC(C)=O (stereo not drawn)
Resp: 0.0

Req: // outcome(item) with item = COC(c1ccc2c(c1)OCO2)C(C)Br (stereo not drawn)
Resp: 0.0

Req: // outcome(item) with item = COc1ccc(C2CC(c3ccccc3)=Nc3ccccc3S2)cc1 (stereo not drawn)
Resp: 0.0

Req: // outcome(item) with item = "Oc1cccnc1CN1CCCC1"
Resp: 0.0
